# tested-system: VSTB174
# Sequence (VH, as listed by the source, chain 1 of 2): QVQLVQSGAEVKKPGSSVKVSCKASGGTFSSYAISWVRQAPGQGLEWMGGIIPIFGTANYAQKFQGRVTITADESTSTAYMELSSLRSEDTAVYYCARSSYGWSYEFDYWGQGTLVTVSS
# Sequence (VL, as listed by the source, chain 2 of 2): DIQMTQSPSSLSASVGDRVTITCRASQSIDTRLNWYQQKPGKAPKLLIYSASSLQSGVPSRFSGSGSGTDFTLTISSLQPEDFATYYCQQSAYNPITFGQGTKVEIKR
# protocol-description: peptide blocking ELISA on plate-bound VISTA, peptide 2 ug/mL
quantity-measured: percent reduction in ELISA signal (%)
# unit: % | format: bare number

Some entries whose results are on file:
| binder | measured-number |
| --- | --- |
| FYKTWYRSSRGEVQT (synthetic overlapping peptide from human VISTA) [Spiked Peptide 8 (FYKTWYRSSRGEVQT)] | 22 |
| GHDVTFYKTWYRSSR (synthetic overlapping peptide from human VISTA) [Spiked Peptide 7 (GHDVTFYKTWYRSSR)] | 8 |
| CVVYPSSSQESENIT (synthetic overlapping peptide from human VISTA) [Spiked Peptide 30 (CVVYPSSSQESENIT)] | 12 |

get_value(item= AMELQVQTGKDAPSN (synthetic overlapping peptide from human VISTA) [Spiked Peptide 27 (AMELQVQTGKDAPSN)] , readout=percent reduction in ELISA signal) returns 13
